Source listed as patent US20210269525A1.

- TARGET_DESC: T1, Histidine-tagged human CD3e protein (human, UniProt P07766 23-126)
- T1 construct: also called hCD3e-His; not shown: His tag
- TEST_DETAILS: SPR (Biacore), human CD3e

# BINDER, MEASUREMENT_UNITS, koff
data = [
    ("1B1-H4K3-IgG1-LALA (antibody, V domains shown, Humanized; human IgG1 with LALA mutations; also called H4K3 (humanized 1B1)) VH: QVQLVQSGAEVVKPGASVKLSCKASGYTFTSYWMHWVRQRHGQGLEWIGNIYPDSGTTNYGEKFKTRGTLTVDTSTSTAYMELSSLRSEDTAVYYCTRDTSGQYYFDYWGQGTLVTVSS VL: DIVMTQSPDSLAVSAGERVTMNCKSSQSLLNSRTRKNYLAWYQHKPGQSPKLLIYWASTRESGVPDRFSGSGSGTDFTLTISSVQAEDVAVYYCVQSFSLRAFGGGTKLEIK", "s⁻¹", 0.000583),
    ("1B1-H2K3-IgG1-LALA (antibody, V domains shown, Humanized; human IgG1 with LALA mutations; also called H2K3 (humanized 1B1)) VH: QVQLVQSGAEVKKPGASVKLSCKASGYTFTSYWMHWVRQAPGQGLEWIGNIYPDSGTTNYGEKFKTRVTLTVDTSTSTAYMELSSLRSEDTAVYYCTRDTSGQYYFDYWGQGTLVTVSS VL: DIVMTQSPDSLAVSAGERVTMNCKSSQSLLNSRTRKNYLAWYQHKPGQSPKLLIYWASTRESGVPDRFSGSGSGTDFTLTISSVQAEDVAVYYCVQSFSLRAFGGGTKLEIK", "s⁻¹", 0.000651),
]
